# apparent KD of K4 kissing-loop reporter annotations
- Test system: K4 kissing-loop RNA reporter
- experimental_protocol: apparent KD of K4 kissing-loop reporter; higher = weaker reporter binding
- reported_conditions: Eterna round: R107; input ligand: arginine 13.2 mM
The reply should be a number in nM, with the unit left off.

// below: answered sequences
CACUUACGUAGUGAUGUUACGAUCUCUGAUACCAGACAACUCUAAGUCCCUUGGCAGCAGUCAUUUUGCUUAUAAUUUACUCAAA [JR_ExcTheophyA_Sub015]
556
AUGCCUCUGGCUGAUACCAGUGAUGCAGGGUAUGAGACAGGGAGUGAUGUUCCCUGCAGCCACCCUUGGCAGCAGUUUAAGUUUG [Exclusion Theophylline B GF 20]
180
UGUACCGAGUCAGGAUAUCAUAAAGUUGGAGUGAUGUUCCAAUAACGACUGACAAAGUCGGUCGAUUGAGAAGGGACUUGGUACU [FmnBS 9 #SwitchBubble #StaticStem]
139
AGGUCACCACUACAGUGAUGUUGUGGAGAGCAGGAUAUGCAGAAAUGCAGAAGGGCUCGCUCUCGGUGACCGAAUGAAACAUUCA [Omei KL FMN A SS A v7]
670

Here is another sequence to look at.
Reported apparent KD of K4 kissing-loop reporter for GCGCGGGAGUGAUGUUCCAAGUGGUGUUAACGAGGACCGGUACGGCCGCCACUCGAUACGGCCGGGCCGUAGGAUAAACUGGCGC [Same State - Tryptophan A (Freestyle 14)] was 376

* * *

# apparent KD of MS2 coat protein annotations
- Test system: MS2 coat protein
- experimental_protocol: apparent KD of MS2 coat protein; designed switch direction (-1 OFF switch, 1 ON switch): -1; higher = weaker reporter binding
- reported_conditions: Eterna round: R95; input ligand: microRNA oligo, concentration not stated
The reply should be a number in nM, with the unit left off.

// below: answered sequences
CUUUCGUGAGGAUAUCAGUAGUAAUAAAAUAAAAUUACUACUGAGAAGGCACAUGAGGAUCACCCAUGUUCCUC [salish99_ex3_r3_098] (puzzle: Exclusion 4)
23.5
GAUUAUGCGAGCUUUAGGGACAUGAGGAUCACCCAUGUUCGUCUUAUUGGUCUGGAUGCGCUAACAUACCUAAAUCU [JMF 46] (puzzle: Sensor v3, turn-off variant 1)
31.7
GCGAAAGCAAGCAAGUGAAACAUGAGGAUCACCCAUGUCCUCAUUUGUUCGUCUUAUAAGCUAUGCGAAAGCAUAGC [Sensor 3, v1 - 7] (puzzle: Sensor v3, turn-off variant 1)
218

Reported apparent KD of MS2 coat protein for AAAAAACAAGGAUAUACUAAGGAUGAUUAUCUUAAUUUUUGACAUGAGGAUCACCCAUGUAGAAGGUGUUAAAA [JR_Exclusion2_Sub007] (puzzle: Exclusion 2) was 47.5

Reported apparent KD of MS2 coat protein for CCGAGGCUAGGAUAUUGACGAUAAUACAUGAGGAUCACCCAUGUGAGUCGUGUAUGCGCGCAAGAAGGAGUAAUAA [Tiorreonbi] (puzzle: Exclusion 5) was 15.2

* * *

- Tested on: K4 kissing-loop RNA reporter
- experimental_protocol: apparent KD of K4 kissing-loop reporter; higher = weaker reporter binding
- reported_conditions: Eterna round: R107; input ligand: arginine 13.2 mM
# apparent KD of K4 kissing-loop reporter annotations
The reply should be a number in nM, with the unit left off.

Reported apparent KD of K4 kissing-loop reporter for ACGUGCACCAGUGAUGUUGGAAAAUAUGAAGGAGCGUGCGAAAGCACAGGUAGGUCGCAUAAUAGCACGAGCCACGAAAGUGGCA [#SwitchBubble 6 #K4Early #Sliding] was 159

Reported apparent KD of K4 kissing-loop reporter for CUUAAGAUAUGAGUGAUGUUUAUGUCCGAAGGAGCGUGCGAAAGUACAGGUAGGUCGCGGAUGUGAGUGAUGUUCAUGUAAGCGA [KL-XArg-A13 #analogue] was 87.9

Reported apparent KD of K4 kissing-loop reporter for AUUUUUUUGUCAGGAUAUUAGUAUGCAUUUAGUUUGUUAGUGAUGUUGAUAUUUUGUUUAUGUAUUUAAGAAGGGAUUUAGCGGU [iiikmullin] was 217

Reported apparent KD of K4 kissing-loop reporter for GGAUCCACCAGUGAUGUUGGAGAAAACUCUAAGGAUAUGACGAAAGUCAGAAGGUGGUAGACUGGACAAAGUCCGGUCGGAUCCA [FmnA 23 U30] was 177

Reported apparent KD of K4 kissing-loop reporter for GUAUAUCGAACUGAUACCAGAGAAUAUAGCAGUGAUGUUGCAUAUAUGAAUAAGACUCGACUCCCUUGGCAGCGGGAAGAUAUAC [On purpose 2] was 169

Reported apparent KD of K4 kissing-loop reporter for UGUCAUUGGUCGGCCGCCACUCCGUAACGAGUGAUGUUCUAAAAGACGGAUCGAAAGAUCUGUCGGAGGACCGGGACCGAUGACU [FiskerMod 7 - Jieux - Same State - Tryptophan B] was 149

* * *

- Tested on: K4 kissing-loop RNA reporter;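 further: bound reporter read as fluorescence of individual clusters on recovered sequencing chips by microscopy, with normalized cluster intensities fitted with a binding model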
- experimental_protocol: apparent KD of K4 kissing-loop reporter; higher = weaker reporter binding
- reported_conditions: Eterna round: R107; input ligand: theophylline 20 uM
assay_readout: apparent KD of K4 kissing-loop reporter (nM)
The reply should be a number in nM, with the unit left off.

// below: answered sequences
GCAGUGAUGUUGCACGAGUAGGGUAGAGUGCGAGGACCGGUACGGCCGCCACUCGUAUGGAACUCGCUAAUUUAUGGAAUGGUGA [whbob_SS_tryp_A]
920
AAUAUAUAGUGAAGGAGCGCGUAUUGCAGUGAUGUUGCUAAGUUAUUAUUAUCUAUUUUUACGCAGGUAGGUCGCACUAUAUAUA [JR_SSArginiB_Sub014]
245
AUUUAUCCGUCCAGCUGAGUGAUGUUUAGCCGAGGACCGGUACGGCCGCCACUCGUAAGAACCUGUUACGUUGGCUCCUGUGGUG [theeternabot_exclusion_KL_Trp_A_49]
201

Reported apparent KD of K4 kissing-loop reporter for UUGUUUGGUUGAGAGGUUGGGCGAGAUGAUACCAGUAUAGAAGAGUACCCUUGGCAGCAUAGGAGAGAUAUAGUGAUGUUGUAUG [SSTheophA.T] was 494

Reported apparent KD of K4 kissing-loop reporter for UAGGAGUGAUGUUCCUUUAGCAGGUAGGAAGGAGCGCCCAUUUGGGCAGGUAGGUCGCCUACUGGCCCUGAGUUAAACCUUAGGC [#11 K4 Arginine A Same State] was 207

Reported apparent KD of K4 kissing-loop reporter for AUGGUGGAUCAGUGAUGUUGGUGGAGUAGGUAGGAUAUGAGUGAUGUUAGAAGGAUCGGAGUGAUGUUCCAGGUGGUUGUGUUGU [KL-SSFMN-A3] was 516

* * *

- System: MS2 coat protein
- experimental_protocol: apparent KD of MS2 coat protein; higher = weaker reporter binding
- reported_conditions: Eterna round: R107; input ligand: theophylline 20 uM
Use satisfied when the recorded apparent KD of MS2 coat protein is no lower than 70 nM; use not satisfied when it is lower.

As a guide, the following entries are already answered.
AAGAACAUGAGGAUCACCCAUGUGAUCGUUCGAGGACCGGUACGGCCGCCACUCGGACCUGUGUCCAGGCACGGGCCGACGCGAC [theeternabot_sameState_MS2_Trp_A_21]
satisfied
UUGGGUUUGCGAAGGAGCGGGAAAUAUAUAUAUAUAAUCCUAACAUGAGGAUCACCCAUGUCCCAGGUAGGUCGCGCAGGUUUGG [12.L]
satisfied

Here is another sequence to look at.
Req: API: above_or_equal(metric=apparent KD of MS2 coat protein, cutoff=70 nM) for item GGUUGGUGUGGAGACAUAUUGAUUACUGAAGGAGCGGGAAUAAACCCAGGUAGGUCGCAGAGAUCCACAUGAGGAUCACCCAUGU [!0.P]
Resp: not satisfied

* * *

- Test system: MS2 coat protein
- experimental_protocol: apparent KD of MS2 coat protein; designed switch direction (-1 OFF switch, 1 ON switch): -1; higher = weaker reporter binding
- reported_conditions: Eterna round: R95; input ligand: FMN 200 uM
# binning rule on apparent KD of MS2 coat protein: low interval: < 30 nM; middle interval: ≥ 30 nM and < 50 nM; high interval: ≥ 50 nM

As a guide, the following entries are already answered.
GAUUAUGCGAGCUUUAGGGACAUGAGGAUCACCCAUGUUCGUCUUAUUAGUCUAGAUGCACUGACAUACCUAAAUCU [JMF 78] (puzzle: Sensor v3, turn-off variant 1)
low interval
AAGAAACAUGAGGAUCACCCAUGUGAGGAUAUGACCAAGAAAAGAAAAGAAAGAAGAAUCAGAAGGCACAAAGG [salish99-ex1_r3_051] (puzzle: Exclusion 1)
middle interval
UUUAAUUUUUUUUUUUUACAAGCUUUUUGCUCGUCUUAUACAUGAGGAUCACCCAUGUGGGUGGAAAGUAAAUUAUC [JMF 47] (puzzle: Sensor v3, turn-off variant 2)
middle interval

Req: Which apparent KD of MS2 coat protein category applies to CUUCACCCACCUGAGCUCACCCACAUACCUGCUCAGGUGACAUGAGGAUCACCCAUGUUUUUUGCCCGUCUUAUCUU [Soteonge] (puzzle: Sensor v3, turn-off variant 2) here?
Resp: middle interval

Req: Which apparent KD of MS2 coat protein category applies to UUGAGCAGACGGAGAUCCAACAUGAGGAUCACCCAUGUCUCAAAAGCUUUUUGCUCAUCUUAUCGUACCUUGGUGCU [Mat - Sensor v3 - turn-off var 1 - JL Mod - D15] (puzzle: Sensor v3, turn-off variant 1) here?
Resp: high interval

Req: Which apparent KD of MS2 coat protein category applies to UCAUACGGUGAGGAUAUCUCCACUAAAGUGUGUAGAGAAGGCGCUACAUGAGGAUCACCCAUGUUUAUGGGCAG [Ex-6 Malc#13] (puzzle: Exclusion 6) here?
Resp: high interval

Req: Which apparent KD of MS2 coat protein category applies to UUUAAUUUUUUUUUUUUACAAGCUUUUUGCUCGUCUUAUACAUGAGGAUCACCCAUGUGAGUGGGAAGUAAAUUAUC [JMF 55] (puzzle: Sensor v3, turn-off variant 2) here?
Resp: low interval
